Molecular target: Macrophage scavenger receptor types I and II (Mus musculus)
Sequence (whole entry): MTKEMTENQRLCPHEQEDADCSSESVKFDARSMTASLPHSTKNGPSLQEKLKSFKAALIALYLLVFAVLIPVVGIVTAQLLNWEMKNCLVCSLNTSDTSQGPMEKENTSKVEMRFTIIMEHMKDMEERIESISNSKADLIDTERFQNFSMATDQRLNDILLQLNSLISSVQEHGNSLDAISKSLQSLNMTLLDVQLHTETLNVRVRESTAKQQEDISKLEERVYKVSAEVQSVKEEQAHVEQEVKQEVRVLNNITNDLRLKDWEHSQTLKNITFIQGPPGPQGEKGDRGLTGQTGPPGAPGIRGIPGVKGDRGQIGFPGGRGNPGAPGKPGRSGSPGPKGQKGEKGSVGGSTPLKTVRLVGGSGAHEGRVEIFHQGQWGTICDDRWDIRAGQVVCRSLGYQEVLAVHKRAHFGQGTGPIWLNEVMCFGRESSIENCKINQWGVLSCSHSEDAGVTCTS
Experiment: Percent inhibition of DiI-acetyl-LDL binding to scavenger receptor of mouse peritoneal macrophages at 100 uM
Assay type: functional
ENDPOINT: inhibition (%)

SMILES TEXT	inhibition (%)
CCCCCCCCCCCCCCCCCC(=O)Nc1ccc(S(=O)(=O)O)c(NC(=O)CCCCCCCCCCCCCCCCC)c1	84.6
CCCCCCCCCCCCCCCCCCCCCC(=O)Nc1ccc(S(=O)(=O)O)c(NC(=O)CCCCCCCCCCCCCCCCCCCCC)c1	85.7
CCCCCCCCCCCCCCCCCC(=O)Nc1cc(NC(=O)CCCCCCCCCCCCCCCCC)cc(S(=O)(=O)O)c1	71.2
CCCCCCCCCCCCCC(=O)Nc1ccc(S(=O)(=O)O)c(NC(=O)CCCCCCCCCCCCC)c1	66.6

Reference source for all entries: ChEMBL document CHEMBL1148259
